This collection of values is drawn from the supplement of paper PMC6897291.

Could you please report measured growth inhibition by drug plus 177Lu-lilotomab satetraxetan for the items listed next?
Test system: RIVA
procedure_summary: growth inhibition by drug plus 177Lu-lilotomab satetraxetan (1 - RLU/untreated control) (fraction); higher = stronger inhibition
condition_label: 10 nM; time (day): 6; 177Lu-lilotomab satetraxetan 0.5 ug/ml
Give bare numbers.

> print(dat)
                                   compound  recorded.number
1     COc1ccc(CCN2CCN(CCCc3ccccc3)CC2)cc1OC            0.385
2   Cn1nnc2c(C(N)=O)ncn2c1=O [Temozolomide]            0.549
3  CC(C=CC(=O)NO)=CC(C)C(=O)c1ccc(N(C)C)cc1 (configuration not stated)            0.561
4  COc1cc(Nc2c(C#N)cnc3cc(OCCCN4CCN(C)CC4)c(OC)cc23)c(Cl)cc1Cl [Bosutinib (SKI-606)]            0.638

# return growth inhibition by drug plus 177Lu-lilotomab satetraxetan for each item in the list
1. COc1ccc2c(c1)CCC1C2CCC2(C)C(NCCCCCCN3C(=O)C=CC3=O)CCC12 (configuration not stated)
2. Oc1cccc(-c2nc(N3CCOCC3)c3oc4ncccc4c3n2)c1
3. Cc1nc(-c2ccc(OCC(C)C)c(C#N)c2)sc1C(=O)O

[0.598, 0.572, 0.525]

For every item below, please supply its growth inhibition by drug plus 177Lu-lilotomab satetraxetan.
1. CCCS(=O)(=O)Nc1ccc(F)c(C(=O)c2c[nH]c3ncc(-c4ccc(Cl)cc4)cc23)c1F
2. CCc1cc(Nc2nccc(-c3c(-c4ccc(OC)c(C(=O)Nc5c(F)cccc5F)c4)nc4ccccn34)n2)c(OC)cc1N1CCC(N2CCN(S(C)(=O)=O)CC2)CC1
3. O=C1CN2Cc3c(ccc(Cl)c3Cl)N=C2N1 [Anagrelide]
4. CC[C@H](CO)Nc1nc(NCc2ccccc2)c2ncn(C(C)C)c2n1 [Roscovitine (Seliciclib, CYC202)]

0.576
0.545
0.635
0.554

Working through the 5 compounds below one at a time, give growth inhibition by drug plus 177Lu-lilotomab satetraxetan for each.
1. Cc1[nH]c(/C=C2\C(=O)Nc3ccc(S(=O)(=O)N(C)c4cccc(Cl)c4)cc32)c(C)c1C(=O)N1CCN(C)CC1
2. O=C(Nc1cccc(Cl)c1)Nc1ncc(CCNc2ncnc3ccsc23)s1
3. c1ccc(-c2nn3c(c2-c2ccnc4cc(OCCN5CCOCC5)ccc24)CCC3)nc1
4. C=CC(=O)Nc1cccc(Oc2nc(Nc3ccc(N4CCN(C)CC4)cc3OC)ncc2Cl)c1
5. CC[C@@H]1C(=O)N(C)c2cnc(Nc3ccc(C(=O)N[C@H]4CC[C@H](N5CCN(CC6CC6)CC5)CC4)cc3OC)nc2N1C(C)C

[0.552, 0.666, 0.558, 0.516, 0.726]

What value of growth inhibition by drug plus 177Lu-lilotomab satetraxetan has been reported for the following compound? CC(C)C[C@H](NC(=O)CNC(=O)c1cc(Cl)ccc1Cl)B(O)O
0.525
